Source: paper PMC5540273

Entries and their %Inh
Tested on: EPHA4
condition_set: concentration: 1 μM, replicates: in singlicate; n = 1;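 note: KINOMEscan kinase panel screen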
measured_metric: %Inh

[[record]]
compound = "COc1ccc(Nc2nccc(-c3ccc(NC(=O)c4cc5cc(F)ccc5[nH]4)cc3)n2)cc1"
value = "0%"

[[record]]
compound = "Cc1ccc(NC(=O)Nc2ccc(Cl)c(C(F)(F)F)c2)cc1-c1ccc(C(=O)Nc2ccncc2)cc1"
value = "7%"

[[record]]
compound = "Cc1ccc(NC(=O)c2ccc(Cl)cc2)cc1-c1ccc(C(=O)Nc2ccncc2)cc1"
value = "11%"

[[record]]
compound = "CNCc1ccc2nc(NC(=O)c3ccc(C(C)(C)C)cc3)cn2c1"
value = "0%"

[[record]]
compound = "CS(=O)(=O)CCNCc1nc(-c2ccc3ncnc(Nc4ccc5c(cnn5Cc5ccccc5)c4)c3c2)cs1.Cl.Cl"
value = "6%"

[[record]]
compound = "O=c1cc(N2CCOCC2)nc2n(Cc3cccc(Cl)c3Cl)c3ccccc3n12"
value = "14%"

[[record]]
compound = "Fc1ccc(-c2nc3n(c2-c2ccncc2)CCS3)cc1"
value = "0%"

[[record]]
compound = "COc1ccc(Nc2nccc(N3CCC(NC(=O)c4cc5ccccc5s4)C3)n2)cc1 (stereo not drawn)"
value = "8%"

[[record]]
compound = "COc1cccc(NC(=O)Nc2ccc(C)c(-c3ccc(C(=O)Nc4ccncc4)cc3)c2)c1"
value = "15%"

[[record]]
compound = "Cc1c(Cn2c3ccccc3n3c(=O)cc(N4CCOCC4)nc23)cccc1C(F)(F)F"
value = "0%"

[[record]]
compound = "COc1ccc2cc(-c3nc(-c4ccccc4C(C)C)[nH]c3-c3ccncc3)ccc2c1"
value = "25%"

[[record]]
compound = "CCn1c(-c2c(N)noc2C)nc2cnccc21"
value = "29%"

[[record]]
compound = "CSc1ccc(-c2nc3n(c2-c2ccncc2)CCC3)cc1"
value = "14%"

[[record]]
compound = "COC(=O)C(NC(=O)NC1CCN(c2ccnc(Nc3ccc(F)cc3)n2)C1)c1ccccc1 (stereo not drawn)"
value = "3%"

[[record]]
compound = "COc1cccc(C2=C(Nc3cc(Cl)c(O)c(Cl)c3)C(=O)NC2=O)c1"
value = "28%"

[[record]]
compound = "COC(=O)c1cccc(NC(=O)NC2CCN(c3ccnc(Nc4ccc(F)cc4)n3)C2)c1 (stereo not drawn)"
value = "5%"

[[record]]
compound = "CNc1cc(-c2ccc3c(N)n[nH]c3c2)nc(N)n1"
value = "0%"

[[record]]
compound = "Cc1nccc(-c2c(-c3ccc(F)cc3)ncn2CCCN2CCOCC2)n1.Cl"
value = "4%"


* * *

Test system: ACVR2A
condition_set: concentration: 1 μM, replicates: in singlicate; n = 1
measured_metric: %Inh (%)

[[record]]
compound = "O=C(Nc1n[nH]c2nc(-c3ccco3)c(Br)cc12)C1CCN(Cc2ccccc2)C1.O=C(O)[C@H](O)[C@@H](O)C(=O)O (stereo not drawn) [SB-742034]"
measured_metric = "%Inh"
measurement_units = "%"
value = 21

[[record]]
compound = "Cc1c(Cn2c(C)c(C)n3c(=O)cc(N4CCOCC4)nc23)cccc1C(F)(F)F [GSK2328680]"
measured_metric = "%Inh"
measurement_units = "%"
value = 0

[[record]]
compound = "COc1ccc(CSc2nnc(-c3ccc4nccn4c3)o2)cc1C(F)(F)F"
measured_metric = "%Inh"
measurement_units = "%"
value = 7

[[record]]
compound = "CNc1cc(-c2ccc3c(N)n[nH]c3c2)nc(N)n1 [GSK2224810]"
measured_metric = "%Inh"
measurement_units = "%"
value = 43

[[record]]
compound = "COc1ccc(Nc2nccc(N3CCC(NC(=O)c4cc5ccccc5s4)C3)n2)cc1 (stereo not drawn) [GSK1379738]"
measured_metric = "%Inh"
measurement_units = "%"
value = 0

[[record]]
compound = "CSc1ccc(-c2nc3n(c2-c2ccncc2)CCC3)cc1 [SKF-105561]"
measured_metric = "%Inh"
measurement_units = "%"
value = 0

